B1: TRIM43 (parent)
chain: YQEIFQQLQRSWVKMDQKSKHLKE

Variants of: B1
experimentDescription: protein stability index of a GFP-peptide fusion (GPS, HEK-293T) (PSI 1-6); higher = more stable;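 note: lentivirally expressed fusions sorted by FACS into six bins by GFP to DsRed ratio, PSI derived from sequencing read proportions per bin multiplied by bin number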
studyConditions: c terminus: a fixed tail appended
// reported protein stability index for each item listed
endpointName: protein stability index

itemSequence: YQEIFQQLDRSWVKMDQKSKHLKE [Q9D]
endpointName: protein stability index
observedMeasurement: 2.6
//
itemSequence: YQEIFQQLQRSWVKMDQKSKWLKE [H21W]
endpointName: protein stability index
observedMeasurement: 1.53
//
itemSequence: YQEIFQQLQRSKVKMDQKSKHLKE [W12K]
endpointName: protein stability index
observedMeasurement: 2.7
//
itemSequence: YQEIFQQLWRSWVKMDQKSKHLKE [Q9W]
endpointName: protein stability index
observedMeasurement: 2.39
//
itemSequence: YQEIFQQVQRSWVKMDQKSKHLKE [L8V]
endpointName: protein stability index
observedMeasurement: 2.09
//
itemSequence: YQEIFQQLQRSWVKMDQLSKHLKE [K18L]
endpointName: protein stability index
observedMeasurement: 2.31
//
itemSequence: YQEIFQWLQRSWVKMDQKSKHLKE [Q7W]
endpointName: protein stability index
observedMeasurement: 3.41
//
itemSequence: YQEIFQQLQRQWVKMDQKSKHLKE [S11Q]
endpointName: protein stability index
observedMeasurement: 1.8
//
itemSequence: YQEIFQQLIRSWVKMDQKSKHLKE [Q9I]
endpointName: protein stability index
observedMeasurement: 1.71
//
itemSequence: YQEIFQQLQRDWVKMDQKSKHLKE [S11D]
endpointName: protein stability index
observedMeasurement: 2.68
//
itemSequence: YEEIFQQLQRSWVKMDQKSKHLKE [Q2E]
endpointName: protein stability index
observedMeasurement: 3.44
